These measurements were taken from the supplement of paper PMC7125110.

Entries and their self-cleavage kobs at 160 uM GlcN6P
B1: glmS ribozyme (parent)
chain: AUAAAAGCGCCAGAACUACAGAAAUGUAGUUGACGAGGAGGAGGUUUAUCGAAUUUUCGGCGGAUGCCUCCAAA

- Variants of: B1
- assay-protocol: self-cleavage kobs at 160 uM GlcN6P; higher = faster cleavage; RNA array
- stated-conditions: with glucosamine-6-phosphate
Fewer inactive variants are shown than the library holds.

C16U A52G C71G; 0.000103 s⁻¹
G41U U46G C67U; < 1e-05 s⁻¹
C11G C58U; < 1e-05 s⁻¹
G9U G35A; < 1e-05 s⁻¹

Turning to the following variant.
Which value of self-cleavage kobs at 160 uM GlcN6P has been reported for C50G U57A C58G in the records?
0.000517 s⁻¹
